Measured On: Enoyl-[acyl-carrier-protein] reductase [NADPH] FabI (Staphylococcus aureus, UniProt Q6GI75)
Sequence (Q6GI75 whole entry): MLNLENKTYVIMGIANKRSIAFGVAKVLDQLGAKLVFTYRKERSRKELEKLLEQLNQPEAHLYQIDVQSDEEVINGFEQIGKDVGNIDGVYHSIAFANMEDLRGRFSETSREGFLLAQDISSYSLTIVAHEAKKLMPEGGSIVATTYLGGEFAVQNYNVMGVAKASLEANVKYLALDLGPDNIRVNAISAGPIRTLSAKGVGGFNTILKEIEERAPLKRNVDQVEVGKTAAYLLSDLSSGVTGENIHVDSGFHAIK
Could you please report measured pIC50 for the items listed next?
Quick note: pIC50 values are minus log10 of concentrations in mol/L.

Enquiry: Given O=c1cc(O)cc([C@H]2c3c(cc(/C=C/c4cc(O)c(O)cc4-c4c(O)cc(/C=C/c5ccc(O)c(O)c5)oc4=O)oc3=O)O[C@@H]2c2ccc(O)c(O)c2)o1 , state its recorded pIC50.
Return: 5.22

Enquiry: Also O=c1cc(O)cc([C@H]2c3c(cc(/C=C/c4ccc(O)c(O)c4)oc3=O)O[C@@H]2c2ccc(O)c(O)c2)o1 , if possible.
Return: 4.82
